Molecular target: HLA-A*26:01
Assay: IEDB peptide-MHC binding, purified MHC/direct/fluorescence; filed as Kd, often an IC50 or EC50 that approximates it; bounds were set here for any values at or beyond the usual limits of such assays
Details: source organism: Giardia lamblia ATCC 50803
quantity: Kd

Prompt: // query Kd value for entry FMGRLGPEY
Completion: ≥ 20 µM

Prompt: Fill blank: measured Kd of the sequence KSNRIPFLY is ____.
Completion: ≥ 20 µM

###

Target: HLA-B*08:01
Assay: IEDB peptide-MHC binding, purified MHC/competitive/fluorescence; filed as Kd, often an IC50 or EC50 that approximates it; bounds were set here for any values at or beyond the usual limits of such assays
Conditions: source organism: Lyssavirus rabies
quantity: Kd

Prompt: # get_value(readout='Kd', item= YLDNVGVHI )
Completion: ≥ 5 µM

###

Target: HLA-B*15:01
Assay: IEDB peptide-MHC binding, purified MHC/direct/fluorescence; filed as Kd, often an IC50 or EC50 that approximates it; bounds were set here for any values at or beyond the usual limits of such assays
Conditions: source organism: Lyssavirus rabies
pKd: −log10 of the molar value.
quantity: pKd

Prompt: So what's the measured pKd for this one? YLDNVGVHI
Completion: ≤ 4.70

###

Provide the recorded Kd for the entries that follow.
Target: HLA-B*15:01
Experiment: IEDB peptide-MHC binding, purified MHC/competitive/radioactivity; filed as Kd, often an IC50 or EC50 that approximates it; bounds were set here for any values at or beyond the usual limits of such assays
Conditions: source organism: Vaccinia virus WR
Give just the numeric value; nM need not be written.

Prompt: Can you look up Kd on HLA-B*15:01 for SIKNLVSQF ?
Completion: 24.7

Prompt: Which Kd is reported with HLA-B*15:01 for this entry: SMHFYGWSL ?
Completion: 63

Prompt: Give recorded Kd with HLA-B*15:01 for the following sequence: MSPCRMFSF
Completion: 17.3

Prompt: Identify the measured Kd of KQSNTNKHM for HLA-B*15:01.
Completion: 27.8

Prompt: Find the measured Kd: item RSLIIVLLF , target or system HLA-B*15:01.
Completion: 194

Prompt: Missing value: Kd, HLA-B*15:01, entry FVYVPELSF . Fill in?
Completion: 0.963

Prompt: Give HLA-B*15:01 Kd for FFKQTFGSL
Completion: 1560

Prompt: Missing value: Kd, HLA-B*15:01, entry SIISLFYTF . Fill in?
Completion: 1.37

Prompt: Quick check: Kd on HLA-B*15:01, item GMYCRCSHG ?
Completion: 216

Prompt: Lab request: please report Kd under test system HLA-B*15:01 for GERYYFAYI
Completion: 673

Prompt: For the record NMFNISFRF , what value of Kd is listed for HLA-B*15:01?
Completion: 43.4

Prompt: Form field: Kd recorded for ANITHFCSF with HLA-B*15:01 (enter value)
Completion: 15

Prompt: Recall the recorded Kd for RSFTFKEGF with HLA-B*15:01 and state it.
Completion: 34.8

Prompt: Notebook: pull reported Kd for HLA-B*15:01, entry ILKKLSPYF
Completion: 1.18

Prompt: Lookup: Kd / HLA-B*15:01 / MLHNFLPHM
Completion: 41

Prompt: Missing value: Kd, HLA-B*15:01, entry MLFYLEEPI . Fill in?
Completion: 45.2

Prompt: Any idea what Kd came out for NVINYFNRM on HLA-B*15:01?
Completion: 960

Prompt: Query Kd on HLA-B*15:01 for KTIYAVDSF
Completion: 4.04

Where do the numbers come from? From the Immune Epitope Database (IEDB).
